Species on record: Oryctolagus cuniculus
protocolText: Vasorelaxant effect at a concentration of 10e-4 M on rabbit aortic rings previously contracted with 50 mM KCl.
Type: functional, Aorta
Parameters: unit not given here
Classify as follows. Reported Vasorelaxant effect greater than or equal to 70: true. Reported Vasorelaxant effect below: false.

>  <compound>
CCO/C(O)=C1\C(CS(=O)(=O)c2ccccc2)=NC(C)=C(C#N)C1c1ccccc1 (stereo not given)

>  <discreteLabel>
false

$$$$
>  <compound>
CCOC(=O)C1=C(CS(=O)(=O)c2ccncc2)NC(C)=C(C#N)C1c1ccccc1C(F)(F)F (stereo in doubt; 54)

>  <discreteLabel>
true

$$$$
>  <compound>
CC1=C(C#N)C(c2ccccc2C(F)(F)F)/C(=C(\O)OC(C)C)C(CSc2ccccc2)=N1 (stereo not given)

>  <discreteLabel>
true

$$$$
>  <compound>
CCO/C(O)=C1\C(CS(=O)(=O)c2ccccc2)=NC(C)=C(C#N)C1c1ccccc1C(F)(F)F (stereo not given)

>  <discreteLabel>
true

$$$$

====

// reported IC50 for each item listed
target: Voltage-gated L-type calcium channel (Rattus norvegicus, UniProt P22002+Q02485+P27732)
protocolText: Affinity to bind dihydropyridine receptor (DHP receptor) by inhibiting the radioligand [3H]nitrendipine
Assay type: protein assay
experimentalEndpoint: IC50

>  <molecule>
CCCCc1ccc(S(=O)(=O)CC2=NC(C)=C(C#N)C(c3ccccc3C(F)(F)F)/C2=C(\O)OCC)c(C)c1 (centres undefined)

>  <assayValue>
> 1000 nM

$$$$
>  <molecule>
CCO/C(O)=C1\C(C[S+]([O-])c2ccccc2)=NC(C)=C(C#N)C1c1ccccc1OC(F)F (centres undefined)

>  <assayValue>
> 1000 nM

$$$$
>  <molecule>
CCO/C(O)=C1\C(CS(=O)(=O)c2ccccc2)=NC(C)=C(C#N)C1c1cccc[n+]1[O-] (centres undefined)

>  <assayValue>
> 1000 nM

$$$$
>  <molecule>
CC1=C(C#N)C(c2ccccc2C(F)(F)F)/C(=C(\O)OC(C)C)C(CS(=O)(=O)c2ccccc2)=N1 (centres undefined)

>  <assayValue>
390 nM

$$$$

====

Species: Oryctolagus cuniculus
protocolText: Vasorelaxant effect at a concentration of 10e-7 M on rabbit aortic rings previously contracted with 50 mM KCl.
Format: functional, Aorta
Design: unit not given here
Lab note: compare Vasorelaxant effect with 2, writing 1 if less and 0 if equal or more.

>  <molecule>
COC(=O)C1=C(C)NC(C)=C(C(=O)OC)C1c1ccccc1[N+](=O)[O-]

>  <discreteLabel>
0

$$$$
>  <molecule>
CCO/C(O)=C1\C(CS(=O)(=O)c2ccccc2)=NC(C)=C(C#N)C1c1ccccc1C(F)(F)F (stereo unspecified)

>  <discreteLabel>
0

$$$$
>  <molecule>
CCO/C(O)=C1\C(CS(=O)(=O)c2ccccc2)=NC(C)=C(C#N)C1c1ccccc1 (stereo unspecified)

>  <discreteLabel>
0

$$$$
>  <molecule>
CC1=C(C#N)C(c2ccccc2C(F)(F)F)/C(=C(\O)OC(C)C)C(CSc2ccccc2)=N1 (stereo unspecified)

>  <discreteLabel>
1

$$$$
>  <molecule>
CCOC(=O)C1=C(CS(=O)(=O)c2ccncc2)NC(C)=C(C#N)C1c1ccccc1C(F)(F)F (stereo in doubt; 54)

>  <discreteLabel>
1

$$$$

====

target: Voltage-gated L-type calcium channel (Rattus norvegicus, UniProt P22002+Q02485+P27732)
protocolText: Affinity to bind dihydropyridine receptor (DHP receptor) by inhibiting the radioligand [3H]nitrendipine
Type: protein assay

>  <compound>
CCO/C(O)=C1\C(CS(=O)(=O)c2ccncc2)=NC(C)=C(C#N)C1c1ccccn1 (stereo unspecified)

>  <target>
Voltage-gated L-type calcium channel (Rattus norvegicus, UniProt P22002+Q02485+P27732)

>  <IC50>
> 1000 nM

$$$$
>  <compound>
CC1=C(C#N)C(c2ccccc2C(F)(F)F)/C(=C(\O)OCCC#N)C(CSc2ccccc2)=N1 (stereo unspecified)

>  <target>
Voltage-gated L-type calcium channel (Rattus norvegicus, UniProt P22002+Q02485+P27732)

>  <IC50>
1000 nM

$$$$
>  <compound>
CCOC(=O)C1=C(C)N=C(C[S+]([O-])c2ccc(OC)cc2)/C(=C(/O)OCC)C1c1ccccc1C(F)(F)F (stereo in doubt; 8a)

>  <target>
Voltage-gated L-type calcium channel (Rattus norvegicus, UniProt P22002+Q02485+P27732)

>  <IC50>
21 nM

$$$$
>  <compound>
CC1=C(C#N)C(c2ccccc2C(F)(F)F)/C(=C(\O)OCCN2CCCCC2)C(C[S+]([O-])c2ccccc2)=N1 (stereo unspecified)

>  <target>
Voltage-gated L-type calcium channel (Rattus norvegicus, UniProt P22002+Q02485+P27732)

>  <IC50>
> 1000 nM

$$$$
>  <compound>
CCO/C(O)=C1\C(C[S+]([O-])c2ccc(NC(C)=O)cc2)=NC(C)=C(C#N)C1c1ccccc1C(F)(F)F (stereo unspecified)

>  <target>
Voltage-gated L-type calcium channel (Rattus norvegicus, UniProt P22002+Q02485+P27732)

>  <IC50>
> 1000 nM

$$$$
>  <compound>
CCOC(=O)C1=C(C)N=C(C[S+]([O-])c2ccncc2)/C(=C(/O)OCC)C1c1ccccc1C(F)(F)F (stereo unspecified)

>  <target>
Voltage-gated L-type calcium channel (Rattus norvegicus, UniProt P22002+Q02485+P27732)

>  <IC50>
37.4 nM

$$$$
>  <compound>
CCO/C(O)=C1\C(CS(=O)(=O)c2ccncc2)=NC(C)=C(C#N)C1c1cccc(Cl)c1Cl (stereo unspecified)

>  <target>
Voltage-gated L-type calcium channel (Rattus norvegicus, UniProt P22002+Q02485+P27732)

>  <IC50>
434 nM

$$$$
>  <compound>
CCOC(=O)C1=C(C)N=C(CSc2ccccc2)/C(=C(/O)OCC)C1c1cccnc1 (stereo unspecified)

>  <target>
Voltage-gated L-type calcium channel (Rattus norvegicus, UniProt P22002+Q02485+P27732)

>  <IC50>
523 nM

$$$$
>  <compound>
CC1=C(C#N)C(c2ccccc2C(F)(F)F)C(C(=O)O)=C(C[S+]([O-])c2ccccc2)N1 (stereo unspecified)

>  <target>
Voltage-gated L-type calcium channel (Rattus norvegicus, UniProt P22002+Q02485+P27732)

>  <IC50>
> 1000 nM

$$$$
>  <compound>
CCO/C(O)=C1\C(CSc2ccccc2Cl)=NC(C)=C(C(=O)OC)C1c1ccccc1C(F)(F)F (stereo unspecified)

>  <target>
Voltage-gated L-type calcium channel (Rattus norvegicus, UniProt P22002+Q02485+P27732)

>  <IC50>
36 nM

$$$$
>  <compound>
CCOC(=O)C1=C(C)N=C(CSc2ccccn2)/C(=C(/O)OCC)C1c1ccccc1C(F)(F)F (stereo unspecified)

>  <target>
Voltage-gated L-type calcium channel (Rattus norvegicus, UniProt P22002+Q02485+P27732)

>  <IC50>
51 nM

$$$$
>  <compound>
CCO/C(O)=C1\C(CSc2ccccc2F)=NC(C)=C(C#N)C1c1ccccc1C(F)(F)F (stereo unspecified)

>  <target>
Voltage-gated L-type calcium channel (Rattus norvegicus, UniProt P22002+Q02485+P27732)

>  <IC50>
267 nM

$$$$
>  <compound>
CCO/C(O)=C1\C(CS(=O)(=O)c2ccc(N)cc2)=NC(C)=C(C#N)C1c1ccccc1C(F)(F)F (stereo unspecified)

>  <target>
Voltage-gated L-type calcium channel (Rattus norvegicus, UniProt P22002+Q02485+P27732)

>  <IC50>
1000 nM

$$$$
>  <compound>
CCO/C(O)=C1\C(CSc2ccncc2)=NC(C)=C(C#N)C1c1ccccn1 (stereo unspecified)

>  <target>
Voltage-gated L-type calcium channel (Rattus norvegicus, UniProt P22002+Q02485+P27732)

>  <IC50>
> 1000 nM

$$$$
>  <compound>
CCO/C(O)=C1\C(C[S+]([O-])c2ccc(Cl)cc2)=NC(C)=C(C#N)C1c1ccccc1C(F)(F)F (stereo unspecified)

>  <target>
Voltage-gated L-type calcium channel (Rattus norvegicus, UniProt P22002+Q02485+P27732)

>  <IC50>
> 1000 nM

$$$$
>  <compound>
CCO/C(O)=C1\C(CSc2ccccc2)=NC(C)=C(C#N)C1c1ccccc1C(F)(F)F (stereo unspecified)

>  <target>
Voltage-gated L-type calcium channel (Rattus norvegicus, UniProt P22002+Q02485+P27732)

>  <IC50>
450 nM

$$$$
>  <compound>
CCOC(=O)C1=C(C[S+]([O-])c2ccccc2)NC(C)=C(C#N)C1c1cccc([N+](=O)[O-])c1 (stereo in doubt; 32b)

>  <target>
Voltage-gated L-type calcium channel (Rattus norvegicus, UniProt P22002+Q02485+P27732)

>  <IC50>
> 1000 nM

$$$$
>  <compound>
CCOC(=O)C1=C(C)NC(C[S+]([O-])c2ccccc2C)=C(C(=O)OCC)C1c1ccccc1C(F)(F)F (stereo in doubt; 10a)

>  <target>
Voltage-gated L-type calcium channel (Rattus norvegicus, UniProt P22002+Q02485+P27732)

>  <IC50>
160 nM

$$$$
>  <compound>
CCOC(=O)C1=C(C)N=C(CSc2ccccc2C)/C(=C(/O)OCC)C1c1ccccc1C(F)(F)F (stereo unspecified)

>  <target>
Voltage-gated L-type calcium channel (Rattus norvegicus, UniProt P22002+Q02485+P27732)

>  <IC50>
49 nM

$$$$
>  <compound>
CCOC(=O)C1=C(C)N=C(C[S+]([O-])c2ccccn2)/C(=C(/O)OCC)C1c1ccccc1C(F)(F)F (stereo unspecified)

>  <target>
Voltage-gated L-type calcium channel (Rattus norvegicus, UniProt P22002+Q02485+P27732)

>  <IC50>
10 nM

$$$$
>  <compound>
CCO/C(O)=C1\C(CS(=O)(=O)c2ccccc2)=NC(C)=C(C#N)C1c1ccccc1Cl (stereo unspecified)

>  <target>
Voltage-gated L-type calcium channel (Rattus norvegicus, UniProt P22002+Q02485+P27732)

>  <IC50>
720 nM

$$$$
